# TESTED_TARGET: Btk (Homo sapiens, UniProt Q06187)
# Construct: purified from insect cells as a full-length construct containing a N-terminal 6X-His tag; His6 (N); made in house; host or cells: insect cells (Method C)
# Sequence (Q06187 whole entry): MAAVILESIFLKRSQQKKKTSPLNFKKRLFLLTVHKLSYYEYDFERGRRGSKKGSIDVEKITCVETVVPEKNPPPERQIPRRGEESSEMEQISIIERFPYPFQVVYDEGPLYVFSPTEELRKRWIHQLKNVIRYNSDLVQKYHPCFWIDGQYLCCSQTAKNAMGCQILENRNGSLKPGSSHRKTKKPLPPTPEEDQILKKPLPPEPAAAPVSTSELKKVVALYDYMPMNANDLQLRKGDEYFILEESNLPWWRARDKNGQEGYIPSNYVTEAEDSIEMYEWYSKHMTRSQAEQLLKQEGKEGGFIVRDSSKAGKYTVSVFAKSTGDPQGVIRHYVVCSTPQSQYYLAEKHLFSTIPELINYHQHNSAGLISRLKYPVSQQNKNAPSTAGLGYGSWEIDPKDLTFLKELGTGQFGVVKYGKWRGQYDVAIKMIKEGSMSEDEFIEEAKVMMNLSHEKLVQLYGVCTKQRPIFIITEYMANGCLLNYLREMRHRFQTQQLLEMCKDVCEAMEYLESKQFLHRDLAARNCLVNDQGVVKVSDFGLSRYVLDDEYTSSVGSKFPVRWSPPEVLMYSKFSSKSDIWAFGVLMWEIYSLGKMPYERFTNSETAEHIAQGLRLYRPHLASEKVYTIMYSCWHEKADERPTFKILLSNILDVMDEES
# ASSAY_METHOD_TEXT: Btk in vitro inhibitory activity (one of Method A TR-FRET, Method B electrophoretic mobility shift, Method C radiometric filter binding)
# Type: biochemical
# CONDITION_INFO: wild-type Btk; read-out: Btk-WT IC50
READOUT_TYPE: pIC50
The quantity pIC50 is defined as the negative base-10 logarithm of the molar concentration.

Would you please look over these solved cases?
{"MOLECULE": "C=CC(=O)N1CC[C@@H](Nc2n[nH]c3nccc(-c4cc(F)cc(CNC(=O)c5noc(C(C)(C)C)n5)c4)c23)C1", "TESTED_TARGET": "Btk (Homo sapiens, UniProt Q06187)", "READOUT_TYPE": "pIC50", "OBSERVED_RESULT": 6.54}
{"MOLECULE": "CC1(C)Cc2cc3n(c2C1)CCN(c1nccc(-c2ccnc4[nH]nc(NC5CCNC5)c24)c1CO)C3=O (centres unmarked)", "TESTED_TARGET": "Btk (Homo sapiens, UniProt Q06187)", "READOUT_TYPE": "pIC50", "OBSERVED_RESULT": 6.49}
{"MOLECULE": "C=CC(=O)N1CC[C@@H](Nc2n[nH]c3nccc(-c4ccc(CNC(=O)c5ccc6ocnc6c5)c(F)c4)c23)C1", "TESTED_TARGET": "Btk (Homo sapiens, UniProt Q06187)", "READOUT_TYPE": "pIC50", "OBSERVED_RESULT": 7.19}
{"MOLECULE": "CC(C)(C)n1ccc(C(=O)NCc2ccc(-c3ccnc4[nH]nc(N[C@@H]5CCNC5)c34)cc2F)n1", "TESTED_TARGET": "Btk (Homo sapiens, UniProt Q06187)", "READOUT_TYPE": "pIC50", "OBSERVED_RESULT": 6.78}

Query: Which pIC50 value is on record for `C=CC(=O)N[C@H]1CCCC[C@@H]1Nc1n[nH]c2nccc(-c3ccc(CNC(=O)c4cc(C(C)(C)C)on4)c(F)c3)c12` ?
Reply: 7.58

Query: Which pIC50 value is on record for `C=CC(=O)N[C@@H]1CCN(c2n[nH]c3nccc(-c4ccc(CNC(=O)c5cc(C(C)(C)C#N)on5)c(F)c4)c23)C1` ?
Reply: 9.65
